biological target: Androgen Receptor (AR) protein (Homo sapiens, UniProt P10275, T878A); construct: endogenous in cells; host or cells: LNCaP; experiment: Androgen Receptor (AR) protein degradation assay in LNCaP cells, western blotting; format: cell-based; settings: 20 h, 0.1 μM compound
Sequence (P10275 whole entry T878A): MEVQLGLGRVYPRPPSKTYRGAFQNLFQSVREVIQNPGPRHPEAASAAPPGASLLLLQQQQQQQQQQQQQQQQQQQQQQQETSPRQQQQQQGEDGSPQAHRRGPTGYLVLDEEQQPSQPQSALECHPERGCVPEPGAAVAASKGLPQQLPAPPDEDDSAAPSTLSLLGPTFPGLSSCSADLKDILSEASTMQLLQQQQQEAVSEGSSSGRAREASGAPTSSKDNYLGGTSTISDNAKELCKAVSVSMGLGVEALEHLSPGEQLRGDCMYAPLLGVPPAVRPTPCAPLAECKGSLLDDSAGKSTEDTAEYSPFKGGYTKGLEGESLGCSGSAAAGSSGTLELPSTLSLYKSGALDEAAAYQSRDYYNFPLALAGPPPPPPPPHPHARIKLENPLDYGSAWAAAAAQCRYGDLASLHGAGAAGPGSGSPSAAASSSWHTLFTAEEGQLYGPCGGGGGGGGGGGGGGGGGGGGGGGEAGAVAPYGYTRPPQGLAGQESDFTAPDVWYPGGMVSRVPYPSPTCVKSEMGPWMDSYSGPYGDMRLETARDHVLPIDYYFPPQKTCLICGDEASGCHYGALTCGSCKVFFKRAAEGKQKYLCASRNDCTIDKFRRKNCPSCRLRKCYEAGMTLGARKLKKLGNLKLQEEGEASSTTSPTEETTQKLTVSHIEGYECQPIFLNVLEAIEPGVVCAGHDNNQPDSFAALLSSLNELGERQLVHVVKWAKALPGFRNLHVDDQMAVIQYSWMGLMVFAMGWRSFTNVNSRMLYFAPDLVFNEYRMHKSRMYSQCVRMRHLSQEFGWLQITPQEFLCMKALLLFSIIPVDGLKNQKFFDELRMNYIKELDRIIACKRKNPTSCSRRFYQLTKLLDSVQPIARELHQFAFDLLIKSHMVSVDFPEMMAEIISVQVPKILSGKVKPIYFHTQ
Sequence (Q96SW2 whole entry partner): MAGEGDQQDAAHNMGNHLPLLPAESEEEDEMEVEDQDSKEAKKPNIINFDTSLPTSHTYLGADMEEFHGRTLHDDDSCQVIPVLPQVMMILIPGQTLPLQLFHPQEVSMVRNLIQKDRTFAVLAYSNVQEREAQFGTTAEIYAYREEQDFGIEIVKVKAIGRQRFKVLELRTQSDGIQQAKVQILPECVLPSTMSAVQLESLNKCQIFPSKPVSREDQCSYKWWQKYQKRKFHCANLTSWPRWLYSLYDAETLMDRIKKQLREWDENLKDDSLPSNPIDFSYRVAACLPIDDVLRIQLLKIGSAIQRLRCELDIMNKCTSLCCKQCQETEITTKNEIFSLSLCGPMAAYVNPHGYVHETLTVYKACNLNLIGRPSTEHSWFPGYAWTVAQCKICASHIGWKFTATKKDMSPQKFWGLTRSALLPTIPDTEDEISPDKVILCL
inhibition at 0.1 µM below 90% gives Condition not met; inhibition at 0.1 µM at or above it gives Condition met.

compound: N#Cc1ccc(N2CCC(C(=O)Nc3ccc(C#CCN4CC5(CCN(c6ccc7c(c6)C(=O)N(C6CCC(=O)NC6=O)C7=O)CC5)C4)cn3)CC2)cc1C(F)(F)F (centres unmarked)
class: Condition not met
//
compound: N#Cc1ccc(N2CCC(C(=O)Nc3ccc(N4CCC(CCN5CC(N6CCN(c7ccc8c(c7)C(=O)N(C7CCC(=O)NC7=O)C8=O)CC6)C5)CC4)cn3)CC2)cc1C(F)(F)F (centres unmarked)
class: Condition met
//
compound: N#Cc1ccc(N2CCC(C(=O)Nc3ccc(N4CC[C@@H](CN5CC6(CCN(c7ccc8c(c7)C(=O)N(C7CCC(=O)NC7=O)C8=O)CC6)C5)C4)cn3)CC2)cc1C(F)(F)F (some centres unmarked)
class: Condition met
//
compound: N#Cc1ccc(N2CCC(C(=O)Nc3ccc(N4CCC(CCN5CCN(c6ccc(C(=O)NC7CCC(=O)NC7=O)nc6)CC5)CC4)cn3)CC2)cc1C(F)(F)F (centres unmarked)
class: Condition not met
//
compound: N#Cc1ccc(N2CCC(C(=O)Nc3ccc(N4CCC(CN5CC6(CCN(c7ccc8c(c7)CN(C7CCC(=O)NC7=O)C8=O)CC6)C5)CC4)cn3)CC2)cc1C(F)(F)F (centres unmarked)
class: Condition met

###

target: Androgen Receptor (AR) protein (Homo sapiens, UniProt P10275, T878A); construct: endogenous in cells; host or cells: LNCaP; assay: Androgen Receptor (AR) protein degradation assay in LNCaP cells, western blotting; format: cell-based; details: 20 h, 0.01 μM compound
Label label 1 when inhibition at 0.01 µM is at or above 50%; anything below gets label 0.

compound: N#Cc1ccc(N2CCC(C(=O)Nc3ccc(N4CCC(CN5CCN(Cc6ccc7c(c6)C(=O)N(C6CCC(=O)NC6=O)C7=O)CC5)CC4)cn3)CC2)cc1C(F)(F)F (centres unmarked)
class: label 0
--
compound: N#Cc1ccc(N2CCC(C(=O)Nc3ccc(N4CCC(CN5CCN(C[C@@H]6CCN(c7ccc8c(c7)C(=O)N(C7CCC(=O)NC7=O)C8=O)C6)CC5)CC4)cn3)CC2)cc1C(F)(F)F (some centres unmarked)
class: label 1
--
compound: N#Cc1ccc(N2CCC(C(=O)Nc3ccc(OC4CCN(CC5CCN(c6ccc7c(c6)C(=O)N(C6CCC(=O)NC6=O)C7=O)CC5)CC4)cn3)CC2)cc1C(F)(F)F (centres unmarked)
class: label 1
--
compound: N#Cc1ccc(N2CCC(C(=O)Nc3ccc(OC4CCN(CC5CCN(c6cc7c(cc6F)C(=O)N(C6CCC(=O)NC6=O)C7=O)CC5)CC4)cn3)CC2)cc1C(F)(F)F (centres unmarked)
class: label 1

###

biological target: Androgen Receptor (AR) protein (Homo sapiens, UniProt P10275, T878A); construct: endogenous in cells; host or cells: LNCaP; experiment: Androgen Receptor (AR) protein degradation assay in LNCaP cells, western blotting; type: cell-based; settings: 20 h, 1 μM compound
attribute.measured: inhibition at 1 µM (%)

compound: C[C@@H]1CN(CC2CN(c3ccc4c(c3)C(=O)N(C3CCC(=O)NC3=O)C4=O)C2)CCN1CC1CN(c2ccc(NC(=O)C3CCN(c4ccc(C#N)c(C(F)(F)F)c4)CC3)nc2)C1 (stereo partly drawn)
attribute.measured: inhibition at 1 µM
observed.value: 97
//
compound: C[C@@H]1CN(CC2CN(c3ccc(NC(=O)C4CCN(c5ccc(C#N)c(C(F)(F)F)c5)CC4)nc3)C2)CCN1CC1CN(c2ccc3c(c2)C(=O)N(C2CCC(=O)NC2=O)C3=O)C1 (stereo partly drawn)
attribute.measured: inhibition at 1 µM
observed.value: 99
//
compound: N#Cc1ccc(N2CCC(C(=O)Nc3ccc(N4CCC(CCN5CCN(c6ccc7c(c6)C(=O)N(C6CCC(=O)NC6=O)C7=O)CC5)CC4)cn3)CC2)cc1C(F)(F)F (stereo not drawn)
attribute.measured: inhibition at 1 µM
observed.value: 96
